Target: 14-3-3γ (Homo sapiens, UniProt P61981)
Construct: made in house; host or cells: E. coli NiCo21 (DE3)
Sequence (P61981 whole entry): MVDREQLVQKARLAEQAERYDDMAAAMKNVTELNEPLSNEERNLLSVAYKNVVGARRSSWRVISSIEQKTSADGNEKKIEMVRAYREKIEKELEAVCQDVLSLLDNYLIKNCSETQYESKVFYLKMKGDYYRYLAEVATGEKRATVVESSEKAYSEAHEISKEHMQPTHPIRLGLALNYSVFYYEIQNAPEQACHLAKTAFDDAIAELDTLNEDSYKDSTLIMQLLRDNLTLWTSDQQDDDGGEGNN
Assay: Fluorescence anisotropy (FA) binary binding study: 14-3-3 titrated to fluorescein-labelled peptide
Conditions: Table S3; ΔG minus ΔG of previous peptide, FA; replicate 3
Where a SMILES comes first, the peptide text is derived from it. [ ]: non-standard residue; d: D form. The star is where a group is joined. ξ: configuration not given here. FITC = O=C1OC2(c3ccc(O)cc3Oc3cc(O)ccc32)c2ccc(NC(=S)*)cc21; Phe(4-NO2) = N[C@@H](Cc1ccc([N+](=O)[O-])cc1)C(=O)O; ξAla(4-thiazolyl) = NC(Cc1cscn1)C(=O)O; pS = N[C@@H](COP(=O)(O)O)C(=O)O; β3hS = N[C@@H](CO)CC(=O)O; Nva = CCC[C@H](N)C(=O)O; AEA = NCCOCC(=O)O; βAla = NCCC(=O)O
Reported ΔΔG (to previous) by item:
Measure name: ΔΔG (to previous)

{"Compound": "CCC[C@H](NC(=O)[C@@H](CCCCN)NC(=O)COCCNC(=S)Nc1ccc2c(c1)C(=O)OC21c2ccc(O)cc2Oc2cc(O)ccc21)C(=O)N[C@@H](Cc1ccc([N+](=O)[O-])cc1)C(=O)NC(Cc1cscn1)C(=O)N[C@@H](COP(=O)(O)O)C(=O)N[C@@H](Cc1ccc([N+](=O)[O-])cc1)C(=O)N[C@@H](CO)CC(=O)NCCC(N)=O (stereo partly drawn) [2f] ({FITC-AEA}-[dK][Nva][Phe(4-NO2)][ξAla(4-thiazolyl)][pS][Phe(4-NO2)][β3hS][βAla]-NH2)", "Endpoint result": "1,52 kcal/mol"}
{"Compound": "CCC[C@H](NC(=O)[C@@H](CCCCN)NC(=O)COCCNC(=S)Nc1ccc2c(c1)C(=O)OC21c2ccc(O)cc2Oc2cc(O)ccc21)C(=O)N[C@@H](Cc1ccc([N+](=O)[O-])cc1)C(=O)NC(Cc1cscn1)C(=O)N[C@@H](COP(=O)(O)O)C(=O)N[C@@H](Cc1ccc([N+](=O)[O-])cc1)C(N)=O (stereo partly drawn) [2h] ({FITC-AEA}-[dK][Nva][Phe(4-NO2)][ξAla(4-thiazolyl)][pS][Phe(4-NO2)]-NH2)", "Endpoint result": "0,69 kcal/mol"}
{"Compound": "CCC[C@H](NC(=O)[C@@H](CCCCN)NC(=O)COCCNC(=S)Nc1ccc2c(c1)C(=O)OC21c2ccc(O)cc2Oc2cc(O)ccc21)C(=O)N[C@@H](Cc1ccc([N+](=O)[O-])cc1)C(=O)NC(Cc1cscn1)C(=O)N[C@@H](COP(=O)(O)O)C(=O)N[C@@H](Cc1ccc([N+](=O)[O-])cc1)C(=O)N[C@@H](CO)CC(N)=O (stereo partly drawn) [2g] ({FITC-AEA}-[dK][Nva][Phe(4-NO2)][ξAla(4-thiazolyl)][pS][Phe(4-NO2)][β3hS]-NH2)", "Endpoint result": "0,34 kcal/mol"}
